# System: EKVX
# measurement.notes: NCI tumour cell line growth inhibition, 48 h
Calls of active or inactive are those of the source. Rule as the data show it: active = GI50 up to about 1.1 µM and inactive = higher.
observation.type: GI50

Kindly state the measured GI50 obtained for `COC(=O)c1cc(C)ccc1/C=C1\Cc2cccc(C)c2C1=O` with EKVX.
33.1 µM (inactive)

Kindly state the measured GI50 obtained for CC(=O)OC1CC2C(C)(C)OC(=O)CC(OC(C)=O)[C@]2(C)C2CCC3(C)C(=CCC3[C@H]3COC(=O)C3)[C@]12C (stereo not given in full) with EKVX.
65.5 µM (inactive)

Kindly state the measured GI50 obtained for CSc1nc(NC2OCC(OC(C)=O)C(OC(C)=O)C2OC(C)=O)c2c(n1)OCC2=O (stereo not given) with EKVX.
> 100 µM (inactive)

Kindly state the measured GI50 obtained for `COc1cc(OC)c(SSCCCCS(=O)O)c(OC)c1` with EKVX.
13.7 µM (inactive)

Kindly state the measured GI50 obtained for O=CN(CCN1CCCC1)C1CCc2cc(Cl)c(Cl)cc2C1 (stereo not given) with EKVX.
27.2 µM (inactive)
